experiment: chemical genetic growth profiling, strain panel (AID 1159580);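 further: tested at 20 µM; growth read once vehicle control cultures reached saturation at 30 °C; 1 = growth at the plate median or of vehicle wells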; conditions: S. cerevisiae deletion strains, growth OD, locus YMR125W, strain sto1, stronger effect = lower value
Hit rate of the full screen: of about 5,500 compounds, about 2,000 (36%) were called active. Inconclusive results (about 18%) are left out. The list shows a part of the results.
readout-type: normalized growth
# output: bare number, no unit

- N=C(N)c1ccc(OCCCCCOc2ccc(C(=N)N)cc2)cc1: 0.949
- CC(C)(Oc1ccc(CCNC(=O)c2ccc(Cl)cc2)cc1)C(=O)O: 0.986
- Nc1ccc(S(=O)(=O)Nc2cnc3ccccc3n2)cc1: 1.03
- CC(=O)NC(C(=O)O)C(C)(C)SN=O (stereo unspecified): 0.98
- CCC(C)C(NC)C(=O)O (stereo unspecified): 1.01

In: Report measured normalized growth; entry is `COC(=O)Nc1nc2ccc(C(=O)c3ccccc3)cc2[nH]1`
Out: 1.03

###

experiment: chemical genetic growth profiling, strain panel (AID 1159580);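 further: tested at 20 µM; growth read once vehicle control cultures reached saturation at 30 °C; 1 = growth at the plate median or of vehicle wells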; conditions: S. cerevisiae deletion strains, growth OD, locus YKL193C, strain SDS22
The campaign covered roughly 5,500 compounds. About 2,000 (36%) were called active. Inconclusive results (about 18%) are left out. No stated cut-off is given here; in the data, active means normalized growth mostly below about 0.91 (no sharp cut-off); inconclusive means no clear call, values can overlap the other calls; inactive means mostly above about 0.92. Some of the results follow.
Select the correct class. Options are active, inactive and nothing else.

- O=S(=O)(NC(=S)Nc1ccc(Cl)c(Cl)c1)c1ccccc1: inactive
- O=[N+]([O-])c1ccc(S(=O)(=O)c2ccccc2)nc1S(=O)(=O)c1ccccc1: active

From here, focus on the item given below.
In: Look up the recorded call for `Cc1csc(NC(=O)Nc2ccc(C(F)(F)F)cc2)c1` in this test.
Out: inactive

###

The following molecules are shown together with reported normalized growth values.
assay: chemical genetic growth profiling, strain panel (AID 1159580);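 further: tested at 20 µM; growth read once vehicle control cultures reached saturation at 30 °C; 1 = growth at the plate median or of vehicle wells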; conditions: S. cerevisiae deletion strains, growth OD, locus YKL160W, strain elf1, stronger effect = lower value
In all, about 5,500 compounds went through this assay and about 2,000 (36%) were called active. Inconclusive results (about 18%) are left out. The list shows a part of the results.
# output: bare number, no unit

Here's what some known entries look like.
- CCCCCCCCCCCCCCC(C(=O)O)C(O)(CC(=O)OC)C(=O)O (configuration not stated): 0.99
- CCC(C)C(NC)C(=O)O (configuration not stated): 1.02
- C[C@@H]1OC(O[C@H]2C(O[C@H]3CC[C@@]4(C)C(CC[C@]5(C)C4CC=C4C6CC(C)(C)CC[C@]6(C(=O)O)CC[C@]45C)[C@]3(C)CO)OC[C@H](O)[C@@H]2O)[C@H](O)[C@H](O)[C@H]1O (some centres not stated): 0.0617

In: Report measured normalized growth; entry is `COc1cc(C(=O)NCCCCCC(=O)O)cc(OC)c1OC`
Out: 0.992

In: Report measured normalized growth; entry is `Cc1cc(O)cc(C)c1Cl`
Out: 0.915

In: Report measured normalized growth; entry is `COc1cccc2c1C(=O)c1c(O)c3c(c(O)c1C2=O)C[C@@](O)(C(C)=O)C[C@@H]3O[C@H]1C[C@H](N)[C@H](O)[C@H](C)O1`
Out: 0.963

In: Report measured normalized growth; entry is `Cc1cc(O)cc(=O)o1`
Out: 0.994

In: Report measured normalized growth; entry is CC(=O)/C=C\[C@@H]1[C@@]2(C)CCCC(C)(C)C2CC[C@@]1(C)O (some centres not stated)
Out: 0.963

In: Report measured normalized growth; entry is `NC12CC3CC(CC(C3)C1)C2`
Out: 1.02

In: Report measured normalized growth; entry is `Cc1ccc(-c2cc(C(F)(F)F)nn2-c2ccc(S(N)(=O)=O)cc2)cc1`
Out: 1.03

In: Report measured normalized growth; entry is CC(=O)O[C@H]1CC[C@@]2(C)C(CC[C@]3(C)C2CC=C2C4CC(C)(C)CC[C@]4(C)CC[C@]23C)C1(C)C (some centres not stated)
Out: 0.963

In: Report measured normalized growth; entry is CC1(C)CC[C@]2(C(=O)O)CC[C@]3(C)C(=CCC4[C@@]5(C)CC[C@H](O)[C@@](C)(CO)C5CC[C@]43C)C2C1 (some centres not stated)
Out: 1.02

In: Report measured normalized growth; entry is `NCCC(=O)N[C@@H](Cc1cnc[nH]1)C(=O)O`
Out: 1.01

In: Report measured normalized growth; entry is `C/C=C1\[C@H]2C=C(C)C[C@]1(N)c1ccc(=O)[nH]c1C2`
Out: 0.989

In: Report measured normalized growth; entry is `Cc1cc(O)ccc1Cl`
Out: 1.02

In: Report measured normalized growth; entry is `NNC(=O)c1ccncc1`
Out: 1.04

In: Report measured normalized growth; entry is `Cc1cc(O)cc(O)c1C(=O)O`
Out: 0.994

In: Report measured normalized growth; entry is `CCCCCCCCCCCC[C@H](C(=O)O)[C@@H](C)C(=O)O`
Out: 1

In: Report measured normalized growth; entry is `Cc1ccnc(NS(=O)(=O)c2ccc(N)cc2)n1`
Out: 1.01

In: Report measured normalized growth; entry is `NC(N)=N/N=C/c1c(Cl)cccc1Cl`
Out: 0.983

In: Report measured normalized growth; entry is CCOC(=O)OC(C)OC(=O)C1N2C(=O)C(NC(=O)[C@H](N)c3ccccc3)C2SC1(C)C (some centres not stated)
Out: 0.966

In: Report measured normalized growth; entry is `CC(C)(Oc1ccc(CCNC(=O)c2ccc(Cl)cc2)cc1)C(=O)O`
Out: 0.961
